# Organism: Rattus norvegicus
# PROTOCOL_DETAILS: Open TG-GATES - Regimen: Daily Repeat
# Assay type: toxicity, organism-based, Sprague-Dawley
# Set-up: regimen Daily Repeat, gender Male, age 6 weeks
# STUDY_CONDITIONS: in vivo, po, 300 mg/kg, […], tissue Plasma, route gavage, dose level Middle, time 7 day
Listed here: items and their measured Na.

>  <COMPOUND>
CCCCNC(=O)NS(=O)(=O)c1ccc(C)cc1 [TOLBUTAMIDE]

>  <Na / meq/L>
141

$$$$
>  <COMPOUND>
CC(S)C(=O)NCC(=O)O (centres undefined)

>  <Na / meq/L>
140.6

$$$$
>  <COMPOUND>
O=C(O)c1ccccc1Nc1ccccc1

>  <Na / meq/L>
143.6

$$$$
>  <COMPOUND>
CC(=O)[C@@]1(O)CC[C@H]2[C@@H]3C=C(Cl)C4=CC(=O)CC[C@]4(C)[C@H]3CC[C@@]21C

>  <Na / meq/L>
139.4

$$$$

###

# Species: Rattus norvegicus
# PROTOCOL_DETAILS: Open TG-GATES - Regimen: Daily Repeat
# Type: toxicity, organism-based, Sprague-Dawley
# Set-up: regimen Daily Repeat, gender Male, age 6 weeks
# STUDY_CONDITIONS: in vivo, po, 300 mg/kg, 72 h, tissue Plasma, route gavage, dose level Middle, time 3 day
ASSAY_METRIC: PL (mg/dL)

>  <COMPOUND>
CC(=O)[C@@]1(O)CC[C@H]2[C@@H]3C=C(Cl)C4=CC(=O)CC[C@]4(C)[C@H]3CC[C@@]21C

>  <ASSAY_METRIC>
PL

>  <MEASURED_NUMBER>
172.4

$$$$
>  <COMPOUND>
CCCCNC(=O)NS(=O)(=O)c1ccc(C)cc1 [TOLBUTAMIDE]

>  <ASSAY_METRIC>
PL

>  <MEASURED_NUMBER>
151

$$$$
>  <COMPOUND>
O=C(O)c1ccccc1Nc1ccccc1

>  <ASSAY_METRIC>
PL

>  <MEASURED_NUMBER>
156

$$$$
>  <COMPOUND>
CC(S)C(=O)NCC(=O)O (centres undefined)

>  <ASSAY_METRIC>
PL

>  <MEASURED_NUMBER>
131.4

$$$$

###

# Species: Rattus norvegicus
# PROTOCOL_DETAILS: Open TG-GATES - Regimen: Daily Repeat
# Type: toxicity, organism-based, Sprague-Dawley
# Design: regimen Daily Repeat, gender Male, age 6 weeks
# STUDY_CONDITIONS: in vivo, po, 100 mg/kg, […], tissue Blood, route gavage, dose level Low, time 28 day

>  <COMPOUND>
O=C(O)c1ccccc1Nc1ccccc1 [FENAMIC ACID]

>  <PT (s)>
14.3

$$$$
>  <COMPOUND>
CC(=O)[C@@]1(O)CC[C@H]2[C@@H]3C=C(Cl)C4=CC(=O)CC[C@]4(C)[C@H]3CC[C@@]21C [CHLORMADINONE]

>  <PT (s)>
14.9

$$$$
>  <COMPOUND>
CC(S)C(=O)NCC(=O)O (centres undefined) [TIOPRONIN]

>  <PT (s)>
15.9

$$$$
>  <COMPOUND>
CCCCNC(=O)NS(=O)(=O)c1ccc(C)cc1 [TOLBUTAMIDE]

>  <PT (s)>
13.5

$$$$

###

Listed here: items and their measured APTT.
# Species on record: Rattus norvegicus
# PROTOCOL_DETAILS: Open TG-GATES - Regimen: Single
# Assay type: toxicity, organism-based, Sprague-Dawley
# Design: regimen Single, gender Male, age 6 weeks
# STUDY_CONDITIONS: in vivo, po, 0 mg/kg, 24 h, tissue Blood, route gavage, dose level Control

>  <COMPOUND>
NS(=O)(=O)c1cc(C(=O)O)c(NCc2ccco2)cc1Cl [FUROSEMIDE]

>  <APTT, s>
16.2

$$$$
>  <COMPOUND>
CCO [ALCOHOL]

>  <APTT, s>
17.7

$$$$
>  <COMPOUND>
CN(C/C=C/C#CC(C)(C)C)Cc1cccc2ccccc12 [TERBINAFINE]

>  <APTT, s>
18.9

$$$$
>  <COMPOUND>
CC(=O)[C@@]1(O)CC[C@H]2[C@@H]3C=C(Cl)C4=CC(=O)CC[C@]4(C)[C@H]3CC[C@@]21C [CHLORMADINONE]

>  <APTT, s>
23.5

$$$$
>  <COMPOUND>
O=c1ccc2ccccc2o1 [COUMARIN]

>  <APTT, s>
16.1

$$$$
>  <COMPOUND>
CCCCNC(=O)NS(=O)(=O)c1ccc(C)cc1 [TOLBUTAMIDE]

>  <APTT, s>
17.4

$$$$
>  <COMPOUND>
CN(CCOc1ccc(CC2SC(=O)NC2=O)cc1)c1ccccn1.O=C(O)/C=C\C(=O)O (stereo unspecified) [ROSIGLITAZONE MALEATE]

>  <APTT, s>
16.5

$$$$
>  <COMPOUND>
O=C(O)c1ccccc1Nc1ccccc1 [FENAMIC ACID]

>  <APTT, s>
16.2

$$$$
>  <COMPOUND>
Nc1ccc(Cc2ccc(N)cc2)cc1

>  <APTT, s>
12.6

$$$$
>  <COMPOUND>
CCN(CC)C(=S)SSC(=S)N(CC)CC

>  <APTT, s>
20.8

$$$$
>  <COMPOUND>
CC(S)C(=O)NCC(=O)O (stereo unspecified) [TIOPRONIN]

>  <APTT, s>
21.2

$$$$

###

# Organism: Rattus norvegicus
# PROTOCOL_DETAILS: Open TG-GATES - Regimen: Single
# Type: toxicity, organism-based, Sprague-Dawley
# Design: regimen Single, gender Male, age 6 weeks
# STUDY_CONDITIONS: in vivo, po, 0 mg/kg, 24 h, tissue Plasma, route gavage, dose level Control

>  <MOLECULE>
Nc1ccc(Cc2ccc(N)cc2)cc1

>  <TG [mg/dL]>
89.6

$$$$
>  <MOLECULE>
CN(C)CCCN1c2ccccc2Sc2ccc(Cl)cc21

>  <TG [mg/dL]>
80.2

$$$$
>  <MOLECULE>
CCN(CC)C(=S)SSC(=S)N(CC)CC

>  <TG [mg/dL]>
81.6

$$$$
>  <MOLECULE>
CCO

>  <TG [mg/dL]>
100.8

$$$$
>  <MOLECULE>
NS(=O)(=O)c1cc(C(=O)O)c(NCc2ccco2)cc1Cl [FUROSEMIDE]

>  <TG [mg/dL]>
72.8

$$$$
>  <MOLECULE>
COc1ccc([C@@H]2Sc3ccccc3N(CCN(C)C)C(=O)[C@@H]2OC(C)=O)cc1

>  <TG [mg/dL]>
84.2

$$$$
>  <MOLECULE>
CC(=O)[C@@]1(O)CC[C@H]2[C@@H]3C=C(Cl)C4=CC(=O)CC[C@]4(C)[C@H]3CC[C@@]21C

>  <TG [mg/dL]>
115

$$$$
>  <MOLECULE>
CN(CCOc1ccc(CC2SC(=O)NC2=O)cc1)c1ccccn1.O=C(O)/C=C\C(=O)O (stereo not given) [ROSIGLITAZONE MALEATE]

>  <TG [mg/dL]>
107

$$$$
>  <MOLECULE>
O=C(O)c1ccccc1Nc1ccccc1

>  <TG [mg/dL]>
82.6

$$$$
>  <MOLECULE>
CCCCNC(=O)NS(=O)(=O)c1ccc(C)cc1 [TOLBUTAMIDE]

>  <TG [mg/dL]>
85.4

$$$$

###

Listed here: items and their measured MCV.
# Species: Rattus norvegicus
# PROTOCOL_DETAILS: Open TG-GATES - Regimen: Daily Repeat
# Format: toxicity, organism-based, Sprague-Dawley
# Parameters: regimen Daily Repeat, gender Male, age 6 weeks
# STUDY_CONDITIONS: in vivo, po, 1000 mg/kg, […], tissue Blood, route gavage, dose level High, time 14 day

>  <COMPOUND>
CCCCNC(=O)NS(=O)(=O)c1ccc(C)cc1 [TOLBUTAMIDE]

>  <UNIT>
fL

>  <MCV>
59.1

$$$$
>  <COMPOUND>
O=C(O)c1ccccc1Nc1ccccc1

>  <UNIT>
fL

>  <MCV>
63.2

$$$$
>  <COMPOUND>
CC(=O)[C@@]1(O)CC[C@H]2[C@@H]3C=C(Cl)C4=CC(=O)CC[C@]4(C)[C@H]3CC[C@@]21C

>  <UNIT>
fL

>  <MCV>
58.1

$$$$
>  <COMPOUND>
CC(S)C(=O)NCC(=O)O (centres undefined)

>  <UNIT>
fL

>  <MCV>
61.7

$$$$

###

# Species on record: Rattus norvegicus
# PROTOCOL_DETAILS: Open TG-GATES - Regimen: Daily Repeat
# Type: toxicity, organism-based, Sprague-Dawley
# Parameters: regimen Daily Repeat, gender Male, age 6 weeks
# STUDY_CONDITIONS: in vivo, po, 300 mg/kg, […], tissue Plasma, route gavage, dose level Middle, time 28 day

>  <COMPOUND>
CC(=O)[C@@]1(O)CC[C@H]2[C@@H]3C=C(Cl)C4=CC(=O)CC[C@]4(C)[C@H]3CC[C@@]21C

>  <A/G>
1.1

$$$$
>  <COMPOUND>
O=C(O)c1ccccc1Nc1ccccc1

>  <A/G>
0.8

$$$$
>  <COMPOUND>
CCCCNC(=O)NS(=O)(=O)c1ccc(C)cc1 [TOLBUTAMIDE]

>  <A/G>
0.8

$$$$
>  <COMPOUND>
CC(S)C(=O)NCC(=O)O (centres undefined)

>  <A/G>
1.2

$$$$
